Molecular target: T1, hu4-1BB-Fc (R&D Systems) (human, UniProt Q07011 24-186)
T1 construct: Bought; also called human 4-1BB; not shown: human IgG Fc of the bought fusion
Assay: SPR (Biacore 8K), hu4-1BB-Fc captured by anti-human IgG Fc; apparent value, 1:1 fit
reported metric: koff (s⁻¹)
// note: answer is a bare numeric in s⁻¹

[in] Quick one: koff of multimeric protein SEQ ID NO: 40 (designed binder) QDSTSDLIPAPPLSKVPLQQNFQDNQFHGKWYVVGQAGNIRLREDKDPIKMMATIYELKEDKSYDVTMVKFDDKKCMYDIWTFVPGSQPGEFTLGKIKSFPGHTSSLVRVVSTNYNQHAMVFFKFVFQNREEFYITLYGRTKELTSELKENFIRFSKSLGLPENHIVFPVPIDQCIDGGGGGSGGGGSGGGGSGGGGSGGGGSGVRLWATRQAMLGQVHEVPEGWLIFVAEQEELYVRVQNGFRKVQLEARTPLGGSGGAPEQKLISEEDLGSHHHHHHHHHH ?
[out] 9.75e-05

[in] For multimeric protein SEQ ID NO: 42 (designed binder) QDSTSDLIPAPPLSKVPLQQNFQDNQFHGKWYVVGQAGNIRLREDKDPIKMMATIYELKEDKSYDVTMVKFDDKKCMYDIWTFVPGSQPGEFTLGKIKSFPGHTSSLVRVVSTNYNQHAMVFFKFVFQNREEFYITLYGRTKELTSELKENFIRFSKSLGLPENHIVFPVPIDQCIDGAEAAAKEAAAKEAAAKAGVRLWATRQAMLGQVHEVPEGWLIFVAEQEELYVRVQNGFRKVQLEARTPLGGSGGAPEQKLISEEDLGSHHHHHHHHHH then?
[out] 1.74e-05

[in] For multimeric protein SEQ ID NO: 44 (designed binder) GVRLWATRQAMLGQVHEVPEGWLIFVAEQEELYVRVQNGFRKVQLEARTPLGGGGSQDSTSDLIPAPPLSKVPLQQNFQDNQFHGKWYVVGQAGNIRLREDKDPIKMMATIYELKEDKSYDVTMVKFDDKKCMYDIWTFVPGSQPGEFTLGKIKSFPGHTSSLVRVVSTNYNQHAMVFFKFVFQNREEFYITLYGRTKELTSELKENFIRFSKSLGLPENHIVFPVPIDQCIDGGGSGGAPEQKLISEEDLGSHHHHHHHHHH then?
[out] 2.07e-05

[in] For multimeric protein SEQ ID NO: 43 (designed binder) GVRLWATRQAMLGQVHEVPEGWLIFVAEQEELYVRVQNGFRKVQLEARTPLGGGGSGGGGSGGGGSQDSTSDLIPAPPLSKVPLQQNFQDNQFHGKWYVVGQAGNIRLREDKDPIKMMATIYELKEDKSYDVTMVKFDDKKCMYDIWTFVPGSQPGEFTLGKIKSFPGHTSSLVRVVSTNYNQHAMVFFKFVFQNREEFYITLYGRTKELTSELKENFIRFSKSLGLPENHIVFPVPIDQCIDGGGSGGAPEQKLISEEDLGSHHHHHHHHHH then?
[out] 4.42e-05
